Where do these numbers come from? They come from PubChem BioAssay (NCI).

Tested on: M14 melanoma
Test: NCI tumour cell line growth inhibition, 48 h
MEASURED_METRIC: TGI (µM)
Kindly answer with a numeric value in µM, unit omitted.

# count of solved cases: 3
| COMPOUND | READING_UNIT | TGI |
| --- | --- | --- |
| C=C1C(=O)O[C@H]2[C@H]1CC/C(COC(=O)c1ccc(Cl)nc1)=C\CC[C@@]1(C)O[C@@H]21 | µM | 4.02 |
| C[C@]12CC[C@@H]3c4ccc(O)cc4CC[C@H]3[C@@H]1CC[C@@H]2NS(=O)(=O)c1cccc(F)c1 | µM | 11.9 |
| COc1ccc2c(c1)C(C)Cc1c(ncnc1-n1c(C)nc3ccccc31)N2C (centres undefined) | µM | 15.4 |

Now for the compound whose TGI we want.
Q. Quick one: TGI for O=c1[nH]/c(=C/c2ccc(OCc3ccccc3)cn2)c(=O)[nH]/c1=C/c1ccc(O)cc1 ?
A. 3.78
